- Assayed system: T1, DAXX Helical Bundle domain (DHB_(DAXX), residues 55-144 hDAXX) (human, UniProt Q9UER7 55-144)
- T1 sequence (looked up): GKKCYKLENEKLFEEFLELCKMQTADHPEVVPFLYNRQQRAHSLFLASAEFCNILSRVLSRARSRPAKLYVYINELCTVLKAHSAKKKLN
- Protocol text: ITC
Measured parameter: dH (kcal/mol)
Express the result in kcal/mol but write the number alone.

Guide cases for dH, answers given:
* PENRIAKKMLLEEIKANLSSDEDG (peptide, UniProt P46100 1267-1290, looked up) [ATRX (1267–1290) peptide] | -11.9
* DDDDNDPENRIAKKMLLEEIKANLSSDEDG (peptide, UniProt P46100 1261-1290, looked up) [ATRX (1261–1290) peptide] | -13.8
* DDNDPENRIAKKMLLEEIKANLSSDEDG (peptide, UniProt P46100 1263-1290, looked up) [ATRX (1263–1290) peptide] | -13.4
* DNDPENRIAKKMLLEEIKANLS (peptide, UniProt P46100 1264-1285, looked up) [PEP_(ATRX), peptide fragment of ATRX (1264–1285)] | -13.3

Reported dH ( NDPENRIAKKMLLEEIKANLSSDEDG (peptide, UniProt P46100 1265-1290, looked up) [ATRX (1265–1290) peptide] ) = -13.3

Reported dH ( PVTVDDDDDDNDPENRIAKKMLLEEIKANL (peptide, UniProt P46100 1255-1284, looked up) [ATRX (1255–1284) peptide] ) = -10.6

Every entry's value here was drawn from paper PMC10685803.
